ASSAYED TARGET: FAST (Fluorescence-Activating and absorption-Shifting Tag) (Halorhodospira halophila, UniProt P16113, D65K/C69G/Y94W/T95M/F96I/D97P/Y98T/Q99S/M100R/T101G)
Construct: engineered full-length PYP variant (~14 kDa); E. coli BL21(DE3)
METHOD DESCRIPTION: spectrofluorometric titration of protein with chromophore
TEST CONTEXT: 0.10 µM protein, 25 °C
EXPERIMENTAL READOUT: Kd (nM)

COc1cc(O)ccc1/C=C1N=C(/C=C/c2ccncc2)N(C)C\1=O [N871b]; 250

* * *

ASSAYED TARGET: FAST (Fluorescence-Activating and absorption-Shifting Tag) (Halorhodospira halophila, UniProt P16113, R52L/C69G/Y94W/T95M/F96I/D97P/Y98T/Q99S/M100R/T101G)
Construct: gene pyp; engineered full-length PYP variant (~14 kDa); E. coli BL21(DE3)
METHOD DESCRIPTION: spectrofluorometric titration of protein with chromophore
Format: binding
TEST CONTEXT: 0.10 µM protein, 25 °C
Measured Kd of individual entries
EXPERIMENTAL READOUT: Kd (µM)

COc1cc(O)ccc1/C=C1N=C(/C=C/c2ccncc2)N(C)C\1=O [N871b]; 0.27
COc1cc(O)ccc1/C=C1\N=C2C=C(/C=C/c3ccncc3)C=CN2C1=O; 0.06
COc1cc(O)ccc1/C=C1N=C(/C=C/c2cccs2)N(C)C\1=O; 0.44
COc1cc(O)ccc1/C=C1N=C(/C=C/c2ccccn2)N(C)C\1=O; 0.39
